system: T-47D cells; assay: Inhibition of cell proliferation in T-47D cells (CCK-8, 6 days); format: cell-based; settings: 6 days of treatment, Table 3
MEASURED ATTRIBUTE: IC50 (nM)

// worked examples, IC50 included
>>> meas_value("CC1CN(C2CCN(c3ccc([C@@H]4c5ccc(O)cc5CC[C@@H]4c4ccccc4)cc3)CC2)CCC1N1CCC2(CC1)COc1c2ccc2c1CN(C1CCC(=O)NC1=O)C2=O (some centres unmarked)")
5.34
>>> meas_value("O=C1CCC(N2Cc3cc4c(cc3C2=O)CCC2(CN(C(=O)CN3CCC5(CC3)CCN(c3ccc([C@@H]6c7ccc(O)cc7CC[C@@H]6c6ccccc6)cc3)CC5)C2)O4)C(=O)N1 (some centres unmarked)")
3.53

[P] O=C1CCC(N2Cc3c(ccc4c3OCC43CCN(C(=O)c4ccc(CN5CCN(c6ccc([C@@H]7c8ccc(O)cc8CC[C@@H]7c7ccccc7)cc6)CC5)cn4)CC3)C2=O)C(=O)N1 (some centres unmarked)
[Q] O=C1CCC(N2Cc3cc4c(cc3C2=O)OCC42CCN(C3CCC4(CC3)CN(c3ccc([C@@H]5c6ccc(O)cc6CC[C@@H]5c5ccccc5)cc3)C4)CC2)C(=O)N1 (some centres unmarked)
[R] O=C1CCC(N2Cc3c(ccc4c3OCC43CCN(C(=O)CC4CCN(c5ccc([C@@H]6c7ccc(O)cc7CC[C@@H]6c6ccccc6)cc5)CC4)CC3)C2=O)C(=O)N1 (some centres unmarked)
[S] O=C1CCC(N2C(=O)c3cc4c(cc3C2=O)OCC2(CCN(CC3CCC5(CC3)CCN(c3ccc([C@@H]6c7ccc(O)cc7CC[C@@H]6c6ccccc6)cc3)CC5)CC2)C4)C(=O)N1 (some centres unmarked)
[T] O=C1CCC(N2Cc3cc4c(cc3C2=O)CCC2(CN(C3CCC5(CC3)CN(c3ccc([C@@H]6c7ccc(O)cc7CC[C@@H]6c6ccccc6)cc3)C5)C2)O4)C(=O)N1 (some centres unmarked)
Rank items: key IC50, increasing. Arrange the labels as the request states and list them.
P, Q, T, R, S

[a] O=C1CCC(N2Cc3cc4c(cc3C2=O)CCC2(CN(C(=O)C3CCN(c5ccc([C@@H]6c7ccc(O)cc7CC[C@@H]6c6ccccc6)cc5)CC3)C2)O4)C(=O)N1 (some centres unmarked)
[b] O=C1CCC(N2Cc3c(ccc4c3OCC43CCN(C(=O)C4CCN(C5CCN(c6ccc([C@@H]7c8ccc(O)cc8CC[C@@H]7c7ccccc7)cc6)CC5)CC4)CC3)C2=O)C(=O)N1 (some centres unmarked) [K7]
[c] O=C1CCC(N2C(=O)c3cc4c(cc3C2=O)OC2(CC4)CN(CC3CCC4(CC3)CN(c3ccc([C@@H]5c6ccc(O)cc6CC[C@@H]5c5ccccc5)cc3)C4)C2)C(=O)N1 (some centres unmarked)
Arrange these compounds by their IC50, starting with the largest number. Form entry: labels listed in requested order.
c, a, b
